experimental_target: cynomolgus macaque prostaglandin receptor EP4 (cynEP4) (Macaca fascicularis)
Sequence (Q95J39 entry or part of it): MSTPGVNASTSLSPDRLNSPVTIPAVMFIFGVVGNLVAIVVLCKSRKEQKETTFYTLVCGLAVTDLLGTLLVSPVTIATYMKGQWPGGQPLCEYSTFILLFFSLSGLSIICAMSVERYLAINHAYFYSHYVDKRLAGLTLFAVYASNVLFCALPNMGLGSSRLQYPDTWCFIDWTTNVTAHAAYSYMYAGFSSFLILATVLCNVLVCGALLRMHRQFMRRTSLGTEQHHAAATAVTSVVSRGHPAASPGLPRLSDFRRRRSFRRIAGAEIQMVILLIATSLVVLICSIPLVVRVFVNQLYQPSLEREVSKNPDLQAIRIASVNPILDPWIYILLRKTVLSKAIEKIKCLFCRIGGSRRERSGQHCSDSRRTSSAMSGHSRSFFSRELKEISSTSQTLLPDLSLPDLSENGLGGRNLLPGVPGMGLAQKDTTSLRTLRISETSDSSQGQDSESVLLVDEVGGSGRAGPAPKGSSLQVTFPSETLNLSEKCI
experimental_details: cAMP accumulation (SPA) in CHO cells transiently transfected with cynomolgus macaque EP4
Format: cell-based
measurement_setup: 12 minutes treatment, IBMX present
// reported EC50 per item
Express the result in nM but write the number alone.

CCCCC[C@H](O)/C=C/[C@H]1[C@H](O)CC(=O)[C@@H]1C/C=C\CCCC(=O)O [PGE2, Prostaglandin E2] :: 8.9

Next, consider the following compound.
**Q:** Using known records, supply EC50 for O=C(O)CCCCCCN1C(=O)CCC1CCC(O)Cc1ccccc1 (centres unmarked)
**A:** 560

---

experimental_target: baboon prostaglandin receptor EP4 (baEP4) (Papio cynocephalus, UniProt Q7JGJ7)
Sequence (Q7JGJ7 entry or part of it): as the sequence (Q95J39 entry or part of it) above
experimental_details: Competition binding with 3H-PGE2 on CHO-K1 cells transiently transfected with baboon EP4
measurement_setup: baEP4 transfected CHO-K1 whole cells, 3 nM 3H-PGE2, 1 hr on ice; read-out: IC50, displacement of 3H-PGE2 binding
Listed next: entries and their corresponding IC50.
Write it as a number; the unit nM goes unstated.

O=C(O)CCCCCCN1C(=O)CCC1CCC(O)Cc1ccccc1 (centres unmarked) :: 361

Moving on to another molecule below.
**Q:** Give recorded IC50. CCCCC[C@H](O)/C=C/[C@H]1[C@H](O)CC(=O)[C@@H]1C/C=C\CCCC(=O)O [PGE2, Prostaglandin E2]
**A:** 2.6
